target: human 4-1BB on CHO-K1 cells (human, UniProt Q07011 24-255); experiment: FACS; FIG. 11M
Sequence (Q07011 24-255): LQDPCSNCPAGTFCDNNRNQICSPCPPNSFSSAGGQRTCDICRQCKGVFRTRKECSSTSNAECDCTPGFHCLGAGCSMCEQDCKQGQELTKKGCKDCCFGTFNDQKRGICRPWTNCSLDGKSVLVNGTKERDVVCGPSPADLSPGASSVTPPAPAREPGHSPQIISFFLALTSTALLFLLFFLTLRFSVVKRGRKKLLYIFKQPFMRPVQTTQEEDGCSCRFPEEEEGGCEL
pEC50: −log10 of the molar value.
property.measured: pEC50

{"columns": ["binder", "pEC50"],
 "data": [
  ["PR007298 (antibody, V domains shown) VH: EVQLVESGGGLVKPGGSLRLSCAASGFTFSDYYMSWVRQAPGKGLEWVSYISSSGSTIDYADSVKGRFTISRDNAKNSLFLEMNSLRAEDTAVYYCAREREEVAGTLDFDNWGQGTLVTVSS", 8.43],
  ["Urelumab (antibody, V domains shown) VH: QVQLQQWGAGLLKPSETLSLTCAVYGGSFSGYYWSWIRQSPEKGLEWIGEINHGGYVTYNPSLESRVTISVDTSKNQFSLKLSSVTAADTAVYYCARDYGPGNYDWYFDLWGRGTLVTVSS VL: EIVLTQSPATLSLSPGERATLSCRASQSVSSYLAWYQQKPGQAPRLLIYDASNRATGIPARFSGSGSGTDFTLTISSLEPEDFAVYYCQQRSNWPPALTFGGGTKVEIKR", 9.26]
]}

(P) PR007299 (antibody, V domains shown) VH: EVQLVESGGGLVKPGGSLRLSCAASGFTFSDYQMSWLRQAPGKGLEWVSYISSSGRTIYYADSVKGRFTISRDNAKNSVSLQMNSLRAEDTAVYYCAREGRFFPGQGTPVTVSS
(Q) PR007300 (antibody, V domains shown) VH: EVQLVESGGGLVKPGGSLRLSCTTSGFTFSDYYMNWVRQAPGKGLEWVSYISNNGSTIYYADSVKGRFTISRDNAKNSLYLQMNSLRAEDTAVYYCARVRPGGSGNYWDWFDPWGQGTPVTVSS
### Prompt Given the two records P and Q , choose the one whose pEC50 value is lower. Reply briefly: the label of your chosen item.
### Response P
(P: 7.77, Q: 8.56)
